Biological target: TAK1-TAB1 fusion protein (Homo sapiens, UniProt O43318)
Sequence (O43318 with tags, fused parts or gaps limits assumed): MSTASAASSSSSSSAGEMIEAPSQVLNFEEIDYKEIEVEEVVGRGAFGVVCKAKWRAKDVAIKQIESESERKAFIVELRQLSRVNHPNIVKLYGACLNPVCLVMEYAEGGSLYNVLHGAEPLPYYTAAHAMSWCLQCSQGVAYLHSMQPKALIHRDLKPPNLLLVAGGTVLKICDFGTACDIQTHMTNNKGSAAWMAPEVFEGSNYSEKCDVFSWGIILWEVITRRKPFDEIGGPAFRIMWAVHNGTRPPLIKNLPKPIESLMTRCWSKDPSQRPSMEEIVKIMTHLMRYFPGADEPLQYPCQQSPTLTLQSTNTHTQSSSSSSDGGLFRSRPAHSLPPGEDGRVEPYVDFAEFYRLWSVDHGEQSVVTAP
Experiment: In vitro TAK1 kinase assay
Conditions: casein substrate, [33P]-γ-ATP, 90 minutes at 30° C., semi-quantitative score, read-out: POTENCY TAK1 (MAP3K7)
Method: For assessing TAK1 inhibition, active TAK1-TAB1 fusion protein was used from Upstate (Cat. No, 14-600). […] The assay is stopped 90 minutes after incubation at 30° C. by the addition of 25 μL phosphoric acid (150 mM). […] After 6 washes with 75 mM phosphoric acid, the bottom of the filter plates are sealed, and incorporated label is quantified after addition of 40 μL scintillation fluid using TopCount.
pIC50: −log10 of the molar value.
readout: pIC50

// pIC50 lookup, key: `CCCN1CCN(c2ccc(Nc3ccc(-c4ccc(C(N)=O)cc4)n4ncnc34)cc2)CC1` > 6.30

For `O=c1cc(-c2ccc(Nc3ccc(N4CCNCC4)cc3)c3ncnn23)cc[nH]1` , what is its reported pIC50? > 6.30

# pIC50 lookup, item `O=c1cc(-c2ccc(Nc3ccc(N4CCN(C5CC5)CC4)cc3)c3ncnn23)cc[nH]1` > 6.30

Give the measured pIC50 of `CC(C)N1CCN(c2ccc(Nc3ccc(-c4ccc5cc[nH]c5c4)n4ncnc34)cc2)CC1` . < 5.00

What value of pIC50 has been recorded for this entry: Cc1[nH]ncc1-c1ccc(Nc2ccc(N3CCOCC3)cc2)c2ncnn12 [Example 8] 5.30 to 6.00

Suppose we examine the compound `CN1CCN(c2ccc(Nc3ccc(-c4ccc(C(N)=O)c(F)c4)n4ncnc34)cc2)CC1` ; what pIC50 value has been reported? 5.30 to 6.00

// pIC50 lookup, key: `CC(C)N1CCN(c2ccc(Nc3ccc(-c4ccc5[nH]ccc5c4)n4ncnc34)cc2)CC1` < 5.00

Consider the compound `CCC(CC)N1CCN(c2ccc(Nc3ccc(-c4ccc(C(N)=O)cc4)n4ncnc34)cc2)CC1` and give its measured pIC50. > 6.30

What value of pIC50 has been reported for the following compound? `C[C@@H]1CN(c2ccc(Nc3ccc(-c4cc[nH]c(=O)c4)n4ncnc34)cc2F)C[C@H](C)N1C` 6.00 to 6.30

I would be grateful if you could share the reported pIC50 for `NC(=O)c1cccc(-c2ccc(Nc3ccc(N4CCOCC4)cc3)c3ncnn23)c1` . < 5.00

Given the compound `CCC(CC)N1CCN(c2ccc(Nc3ccc(-c4cn[nH]c4)n4ncnc34)cc2)CC1` , what is its reported pIC50? > 6.30

Return reported pIC50; argument: `CCC(CC)N1CCN(c2ccc(Nc3ccc(-c4ccnc(OC)c4)n4ncnc34)cc2)CC1` < 5.00

Entry `O=c1cc(-c2ccc(Nc3ccc(N4CCN(C5CCCCC5)CC4)cc3)c3ncnn23)cc[nH]1` has what pIC50? > 6.30

# input compound: `O=c1cc(-c2ccc(Nc3ccc(N4CCN(C5CCC5)CC4)cc3)c3ncnn23)cc[nH]1` ; wanted: its pIC50 > 6.30

Entry `c1nc2c(Nc3ccc(N4CCOCC4)cc3)ccc(-c3cn[nH]c3)n2n1` has what pIC50? 6.00 to 6.30

Could you share which pIC50 value was measured for `CC(C)CCN1CCN(c2ccc(Nc3ccc(-c4ccc(C(N)=O)cc4)n4ncnc34)cc2)CC1` ? > 6.30

Value lookup for pIC50; key = `COc1ncc(-c2ccc(Nc3ccc(N4CCOCC4)cc3)c3ncnn23)c(OC)n1` < 5.00
